Target: T1, 4H2692-bA
T1 chain: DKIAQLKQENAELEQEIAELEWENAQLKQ
Test: two-hybrid library CCNG1;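 note: natural log of median RNA to DNA barcode read ratio; higher means stronger binding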
Experimental readout: interaction score

Example binders with recorded interaction score:
- DKIAQLEQKNAELEQKIAELKWEIAQLEQ [4H2473-bA]: 0.426
- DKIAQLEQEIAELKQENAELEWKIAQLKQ [4H2134-bA]: -0.139

[I] DKIAQLEQKNAELKQEIAELEWKNAQLEQ [4H2503-bA]
[II] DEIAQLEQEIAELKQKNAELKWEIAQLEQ [4H121-bA]
[III] DKIAQLKQEIAELEQENAELKWENAQLKQ [4H2588-bA]
[IV] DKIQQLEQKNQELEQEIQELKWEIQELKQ [4H2442-bN]
[V] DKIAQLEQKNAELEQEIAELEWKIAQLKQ [4H2438-bA]
Would you mind ranking these binders by ascending interaction score? // list labels; follow requested order
III, II, IV, V, I
